Each recorded value in this set is attributed to patent US20240034792A1.

target of assay: T1, Human PD-1 expressed on CHO-K1 cells (CHO-K1/hPD-1) (human, UniProt Q15116 25-288)
T1 construct: whole, on cells; also called CHO-K1 cells overexpressing human PD-1
T1 sequence (Q15116 25-288): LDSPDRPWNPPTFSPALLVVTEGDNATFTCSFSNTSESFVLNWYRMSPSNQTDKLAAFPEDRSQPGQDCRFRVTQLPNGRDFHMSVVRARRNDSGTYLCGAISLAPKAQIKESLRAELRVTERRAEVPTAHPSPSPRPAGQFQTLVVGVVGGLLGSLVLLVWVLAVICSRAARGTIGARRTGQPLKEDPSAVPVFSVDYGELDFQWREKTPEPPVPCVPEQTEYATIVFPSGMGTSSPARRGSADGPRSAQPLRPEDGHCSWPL
measurement protocol: FACS, CHO-K1/hPD-1 cells
reported metric: MFI Maximum
Just the number.

MFI Maximum reported for this binder PR005096 (VHH, Monovalent single-domain (VH) variant of PR002481 with Flag-6His tag) VHH: EVQLVETGGGLIQPGGSLRLSCAASGFNVSSHYMSWVRQAPGKGREWVSIIDGGGSTYYADSVKGRFTISRDNSKNRLYLQMNSLRAEDTAMYYCARATRVPEKGGYNYPFNYWGQGTLVTVSS : 4320

MFI Maximum reported for this binder PR005093 (VHH, Monovalent single-domain (VH) variant of PR002481 with Flag-6His tag) VHH: EVQLVETGGGLIQPGGSLRLSCAASGFNVSSHYMSWVRQAPGKGREWVSIIDGGGSTYYADSVKGRFTISRDNSKNRLYLQMNSLRAEDTAMYYCARATRVREANGYNYPFNYWGQGTLVTVSS : 4530

MFI Maximum reported for this binder PR005099 (VHH, Monovalent single-domain (VH) variant of PR002481 with Flag-6His tag) VHH: EVQLVETGGGLIQPGGSLRLSCAASGFNVSSHYMSWVRQAPGKGREWVSIIDSAGSTYYADSVKGRFTISRDNSKNRLYLQMNSLRAEDTAMYYCARATAVAEKNGYNYPFNYWGQGTLVTVSS : 6350

MFI Maximum reported for this binder PR005100 (VHH, Monovalent single-domain (VH) variant of PR002481 with Flag-6His tag) VHH: EVQLVETGGGLIQPGGSLRLSCAASGFNVSSHYMSWVRQAPGKGREWVSIIDRGGSKYYADSVKGRFTISRDNSKNRLYLQMNSLRAEDTAMYYCARATAVAEKNGYNYPFNYWGQGTLVTVSS : 6510

MFI Maximum reported for this binder PR005102 (VHH, Monovalent single-domain (VH) variant of PR002481 with Flag-6His tag) VHH: EVQLVETGGGLIQPGGSLRLSCAASGFNVSSHYMSWVRQAPGKGREWVSIIDRGGSTYYADSVKGRFTISRDNSKNRLYLQMNSLRAEDTAMYYCARATAVAEKNGYNYPFNYWGQGTLVTVSS : 6560
